- Tgt: guanylyl cyclase C (GC-C) (Rattus norvegicus)
- Construct: The mucosal layer was scraped from the intestine and homogenized; from tissue; host or cells: small intestinal mucosa of Sprague-Dawley rats (100,000×g washed membrane pellet)
- Assay Notes: biochemical
- Assay type: biochemical
- Condition Summary: Ki for inhibition of guanylyl cyclase, 20 μM GTP
pKi: −log10 of the molar value.
Attribute Measured: pKi

INSERT INTO assay_data (mol, readout_value) VALUES
  ('CSc1nc(N)c2ncn([C@@H]3O[C@H](COP(=O)(O)OP(=O)(O)OP(=O)(O)O)[C@@H](O)[C@H]3O)c2n1', 3.41);

###

- Tgt: guanylyl cyclase C (GC-C) (Rattus norvegicus)
- Construct: The mucosal layer was scraped from the intestine and homogenized; from tissue; host or cells: small intestinal mucosa of Sprague-Dawley rats (100,000×g washed membrane pellet)
- Assay Notes: biochemical
- Type: biochemical
- Condition Summary: Ki for inhibition of guanylyl cyclase, 1000 μM GTP
pKi: −log10 of the molar value.
Attribute Measured: pKi

INSERT INTO measurements (mol, attribute_measured, readout_value) VALUES
  ('CSc1nc(N)c2ncn([C@@H]3O[C@H](COP(=O)(O)OP(=O)(O)OP(=O)(O)O)[C@@H](O)[C@H]3O)c2n1', 'pKi', 3.55);

###

- Tgt: guanylyl cyclase C (GC-C) (Rattus norvegicus, UniProt P23897)
- Construct: The mucosal layer was scraped from the intestine and homogenized; from tissue; host or cells: small intestinal mucosa of Sprague-Dawley rats (100,000×g washed membrane pellet)
- Sequence (P23897 23-1072): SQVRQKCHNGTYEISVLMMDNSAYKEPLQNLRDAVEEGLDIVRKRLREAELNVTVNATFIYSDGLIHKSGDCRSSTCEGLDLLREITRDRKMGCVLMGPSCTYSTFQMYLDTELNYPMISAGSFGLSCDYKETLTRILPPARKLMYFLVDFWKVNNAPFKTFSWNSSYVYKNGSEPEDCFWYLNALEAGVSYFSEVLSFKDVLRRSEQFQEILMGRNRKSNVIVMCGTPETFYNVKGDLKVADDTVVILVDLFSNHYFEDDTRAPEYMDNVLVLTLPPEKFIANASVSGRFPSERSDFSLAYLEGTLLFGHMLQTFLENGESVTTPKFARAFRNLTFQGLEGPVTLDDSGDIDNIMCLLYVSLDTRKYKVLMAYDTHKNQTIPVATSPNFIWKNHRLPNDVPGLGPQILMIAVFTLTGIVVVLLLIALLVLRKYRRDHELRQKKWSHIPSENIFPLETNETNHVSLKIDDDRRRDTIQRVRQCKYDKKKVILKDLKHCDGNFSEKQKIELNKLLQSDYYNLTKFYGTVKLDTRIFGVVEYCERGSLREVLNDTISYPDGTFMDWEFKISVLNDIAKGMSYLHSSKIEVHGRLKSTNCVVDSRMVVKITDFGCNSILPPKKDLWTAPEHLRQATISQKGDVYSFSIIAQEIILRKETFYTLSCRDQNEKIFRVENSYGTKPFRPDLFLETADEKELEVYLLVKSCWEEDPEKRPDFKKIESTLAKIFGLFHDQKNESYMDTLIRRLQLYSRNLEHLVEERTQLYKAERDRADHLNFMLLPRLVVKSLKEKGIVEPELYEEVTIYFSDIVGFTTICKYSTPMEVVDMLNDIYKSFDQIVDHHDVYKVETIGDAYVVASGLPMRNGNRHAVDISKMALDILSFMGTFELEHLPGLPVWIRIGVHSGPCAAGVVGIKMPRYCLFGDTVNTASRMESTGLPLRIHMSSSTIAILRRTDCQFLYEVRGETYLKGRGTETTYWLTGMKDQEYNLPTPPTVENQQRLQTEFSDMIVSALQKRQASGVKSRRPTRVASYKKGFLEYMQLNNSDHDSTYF
- Assay Notes: biochemical
- Format: biochemical
- Condition Summary: Ki (concentration yielding half-maximum inhibition)
pKi: −log10 of the molar value.
Attribute Measured: pKi

INSERT INTO results (compound, readout_value) VALUES
  ('Nc1nc(Cl)nc2c1ncn2[C@@H]1O[C@H](COP(=O)(O)OP(=O)(O)OP(=O)(O)O)[C@@H](O)[C@H]1O [2ClATP, 2-chloroadenosine 5''-triphosphate]', 3.52);
